- Tested on: PPARg:RXRa 270nM:90nM, anti-RXR (NR concentration 270 nM, RXRa partner concentration 90 nM)
- measurement notes: PBM binding z-score (relative to random genomic background probes); higher = stronger binding; sequences stand for … in GC…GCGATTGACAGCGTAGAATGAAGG
value kind: PBM binding z-score

entry_sequence=TAGCCTAGGTCATTGGCCCAGTATAGTACGCATC value_kind="PBM binding z-score" result_number=2.32
entry_sequence=TAACCAAGGTGAGCTGAGGTCGTTGATCCAACTC value_kind="PBM binding z-score" result_number=0.531
entry_sequence=CCTACTGGGCCAAGGTCATTCATCAGTCAAAGCA value_kind="PBM binding z-score" result_number=4.44
entry_sequence=CCGACTGGGGCATGGTTACCATAACGCACAGCCA value_kind="PBM binding z-score" result_number=1.11
entry_sequence=CCCAGTTGGTCAGGAGGTCACACACCGGATATGA value_kind="PBM binding z-score" result_number=3.79
entry_sequence=CATCCTAGGTCAGGGCCAGTATAGGAGGAACGTT value_kind="PBM binding z-score" result_number=2.19
entry_sequence=CAAACTAGGTCAAAGCTCAAAGTCGAGCCAACCA value_kind="PBM binding z-score" result_number=8.74
entry_sequence=CCTGCTAGGTCAATGGTCAGCAAAAGCAGCTCGC value_kind="PBM binding z-score" result_number=5.15
entry_sequence=AGAATGAGGTTATACGTAGATCAGGGAAGAAAGT value_kind="PBM binding z-score" result_number=2.02
entry_sequence=CCTAGTTGGTCTGGAGGTCACACACCGGATATGA value_kind="PBM binding z-score" result_number=3.14
entry_sequence=CCGACTGGGGCATAAGGTTAACATAAGCCAGCCC value_kind="PBM binding z-score" result_number=3.42
entry_sequence=CAAACTAGGGCACGAAAGGTCAAAGTCGAATGAC value_kind="PBM binding z-score" result_number=7.22
entry_sequence=GGAACGAGCGCAAGTTGATAGCAGAGTTTGATGG value_kind="PBM binding z-score" result_number=-0.948
entry_sequence=CCTCGGAGTACAACAGGAGGTCAGAGCTGCCAGA value_kind="PBM binding z-score" result_number=0.479
entry_sequence=TTACAAAGGTGAAGGTCGTTGATCCCTCTGTAGA value_kind="PBM binding z-score" result_number=4.48
entry_sequence=ATCTCTAGGTAGGACTCAGTTCAGTGAAGAACGC value_kind="PBM binding z-score" result_number=0.732
entry_sequence=CCGACTGGGGCATATGGTTACCATAAGCCAGCCC value_kind="PBM binding z-score" result_number=1.94
entry_sequence=CCTCACGGGTCACGAGGTTATAGCACGACGAGCG value_kind="PBM binding z-score" result_number=5.68
entry_sequence=CCTTACGGGTCAAGGTGATAGCACGGGTGGTACG value_kind="PBM binding z-score" result_number=4.52
entry_sequence=AGAATGAGGTTATTAACATCAGGGAATTGCGGTC value_kind="PBM binding z-score" result_number=1.34
entry_sequence=AGGCAAAGTTCACTAGGTAACGTAAGATTCAGCT value_kind="PBM binding z-score" result_number=6.04
entry_sequence=GCTAGCAGGCCATTAGGGTCACTCAATGACGGGC value_kind="PBM binding z-score" result_number=1.3
entry_sequence=ACTTACGGGTCAACCAGGTTATAGCACGCGTATA value_kind="PBM binding z-score" result_number=5.69
entry_sequence=CGAACTAGGTCAGTACAGGACAGTGAAGGATGAT value_kind="PBM binding z-score" result_number=4.25
entry_sequence=TATACAGTGTCAAAGGCCAGAGTACGAATGTCGA value_kind="PBM binding z-score" result_number=4.17
entry_sequence=CATACAGGGTCAGCTAGGCCAGGGTAGGGACGGC value_kind="PBM binding z-score" result_number=2.84
entry_sequence=ACAGACAGGTGAGTGAAGATAACTCAGCTGGACG value_kind="PBM binding z-score" result_number=-0.267
entry_sequence=TCGAGTAGGTTAGGGGAATTCAGAATGGCGTCGA value_kind="PBM binding z-score" result_number=1.02
entry_sequence=CCTACTCGGCCACGAAAGGTCATTGATTCAGTGA value_kind="PBM binding z-score" result_number=3.43
entry_sequence=ACTAGCAGGCCAAGTTTGGGTCACTCTAACAAAG value_kind="PBM binding z-score" result_number=0.0985
